# system tested: T1, recombinant human IL-23R/Fc chimera (R&D Systems) (human, UniProt Q5VWK5 24-353)
# T1 construct: bought; also called human IL-23R/Fc fusion protein; rhIL23RFc
# T1 sequence (looked up): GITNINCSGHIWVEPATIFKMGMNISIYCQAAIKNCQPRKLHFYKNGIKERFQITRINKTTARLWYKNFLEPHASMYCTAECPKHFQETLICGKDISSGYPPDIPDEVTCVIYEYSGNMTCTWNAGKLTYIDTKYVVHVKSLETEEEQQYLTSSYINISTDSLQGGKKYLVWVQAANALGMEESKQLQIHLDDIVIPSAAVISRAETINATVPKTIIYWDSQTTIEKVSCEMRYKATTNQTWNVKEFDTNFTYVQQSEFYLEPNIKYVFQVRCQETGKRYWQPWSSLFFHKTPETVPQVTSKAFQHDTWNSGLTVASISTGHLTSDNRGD
# test name: competition ELISA against IL-23
readout name: Ratio IC50 to 056-53.H4E IC50 (ratio)
Express the result in ratio but write the number alone.

Value of measured Ratio IC50 to 056-53.H4E IC50 for the entry 105-08-2H12 ATRIMER (designed binder, Homotrimer of the given chain (ATRIMER complex).) EPPTQKPKKIVNAKKDVVNTKMFEELKSRLDTLAQEVALLKEQQALQTVCLKGTKVHMKCFLAFTQTKTFHEASEDCISRGGTLSTPQTGSENDALYEYLRQSVGNEAEIWLGLNGSPRTETWVDMTGARIAYKNWETEITAQPDGGFGYFGENCAVLSGAANGKWFDKRCRDQLPYICQFGIV : 3.3

Short answer for 105-20-1B3 ATRIMER (designed binder, not shown: C-terminal tag: Myc/His6 (pANA4) or HA-StrepII (pANA10); A Ser left at the ompA junction may also sit at the N-terminus) EPPTQKPKKIVNAKKDVVNTKMFEELKSRLDTLAQEVALLKEQQALQTVCLKGTKVHMKCFLAFTQTKTFHEASEDCISRGGTLSTPQTGSENDALYEYLRQSVGNEAEIWLGLNGSALTNTWVDMTGARIAYKNWETEITAQPDGGFGYFGENCAVLSGAANGKWFDKRCRDQLPYICQFGIV : Ratio IC50 to 056-53.H4E IC50 was 1.2

Entry 105-08-2H11 ATRIMER (designed binder) EPPTQKPKKIVNAKKDVVNTKMFEELKSRLDTLAQEVALLKEQQALQTVCLKGTKVHMKCFLAFTQTKTFHEASEDCISRGGTLSTPQTGSENDALYEYLRQSVGNEAEIWLGLNGSPRTDTWVDMTGARIAYKNWETEITAQPDGGWGYFGENCAVLSGAANGKWFDKRCRDQLPYICQFGIV — recorded Ratio IC50 to 056-53.H4E IC50 = 4.3

Provenance of the data: patent US20110086770A1
